system: OVCAR-5; experiment: NCI tumour cell line growth inhibition, 48 h
Activity calls are given as the source filed them. No stated cut-off is given here; in the data, active = GI50 up to about 1.1 µM and inactive = higher. Bridge positions count the residues as written; N and C are the ends. Square brackets hold non-standard residues; d marks the D form. Peptide text beside a SMILES is read from it. * marks the point of attachment. Cbz = O=C(OCc1ccccc1)*; Dab = NCC[CH](N)C(=O)O; Bn = c1ccc(C*)cc1
outcome.measure: GI50

- compound: "CC(=O)C1(c2ccccc2)CCCN(C)CC1 (stereo not drawn)"
  outcome.measure: "GI50"
  endpoint.value: "> 100 µM (inactive)"
- compound: "Cn1c(O)c(C2=Nc3ccccc3C2=O)c2ccccc21"
  outcome.measure: "GI50"
  endpoint.value: "> 100 µM (inactive)"
- compound: "CC(C)CC1NC(=O)C(Cc2ccccc2)NC(=O)C(Cc2ccccc2)NC(=O)C(NC(=O)C(Cc2ccc(OCc3ccccc3)cc2)NC(=O)OCc2ccccc2)CCNC1=O (stereo not drawn) (Cbz-Y(Bn)[Dab]FFL; lactam 2-C; configuration not given here)"
  outcome.measure: "GI50"
  endpoint.value: "> 100 µM (inactive)"
- compound: "O=c1oc2c/c(=C\\c3ccc([N+](=O)[O-])cc3)c(=O)c3cccc1c3-2"
  outcome.measure: "GI50"
  endpoint.value: "> 100 µM (inactive)"
- compound: "CO[P@]1(=O)O[C@@H](c2ccccc2)[C@H](O)[C@]1(O)c1ccccc1"
  outcome.measure: "GI50"
  endpoint.value: "> 100 µM (inactive)"
- compound: "O=C(c1ccccc1)c1c(CC(O)c2ccccn2)n(C(=O)c2ccccc2)c2ccccc12 (stereo not drawn)"
  outcome.measure: "GI50"
  endpoint.value: "20.7 µM (inactive)"
- compound: "COc1cccc(N2C(=O)CSC2c2c[nH]c3ccccc23)c1 (stereo not drawn)"
  outcome.measure: "GI50"
  endpoint.value: "> 100 µM (inactive)"
- compound: "CCCCCCCCCCCCCCCCCCOP(=O)([O-])OC1CC[N+](C)(C)CC1"
  outcome.measure: "GI50"
  endpoint.value: "2.52 µM (inactive)"
- compound: "CC1CC(c2ccc([N+](=O)[O-])cc2)=Nc2ccccc2S1 (stereo not drawn)"
  outcome.measure: "GI50"
  endpoint.value: "23.9 µM (inactive)"
- compound: "CC(C)(C)C1CCC2c3c([nH]c4ccccc34)C3C(=O)N(c4ccc(C#N)cc4)C(=O)C3C2C1 (stereo not drawn)"
  outcome.measure: "GI50"
  endpoint.value: "20.7 µM (inactive)"
- compound: "C1CCN2CC3CONC3C2C1 (stereo not drawn)"
  outcome.measure: "GI50"
  endpoint.value: "> 100 µM (inactive)"
- compound: "CCCCCCCCCCCC(=O)OCC(O)CO (stereo not drawn) [GLYCEROL MONOLAURATE]"
  outcome.measure: "GI50"
  endpoint.value: "> 100 µM (inactive)"
- compound: "C1=CC(=NN=P(c2ccccc2)(c2ccccc2)c2ccccc2)C=C1"
  outcome.measure: "GI50"
  endpoint.value: "> 100 µM (inactive)"
- compound: "O=c1[nH]nc(Cc2ccccc2)[nH]1"
  outcome.measure: "GI50"
  endpoint.value: "> 100 µM (inactive)"
- compound: "O=C1Nc2ccccc2/C1=N/NC(=S)N1CCCC1"
  outcome.measure: "GI50"
  endpoint.value: "12.8 µM (inactive)"
- compound: "COc1cc(NC(C)=O)ccc1C(=O)N/N=C/c1ccco1"
  outcome.measure: "GI50"
  endpoint.value: "> 100 µM (inactive)"
- compound: "CC(C)(C)C1CCC2(CC1)c1[nH]c3ccccc3c1C1(CCC(C(C)(C)C)CC1)c1[nH]c3ccccc3c12 (stereo not drawn)"
  outcome.measure: "GI50"
  endpoint.value: "> 100 µM (inactive)"
- compound: "CC1=NC(C)(C)[N+]([O-])=C1"
  outcome.measure: "GI50"
  endpoint.value: "> 10 µM (inactive)"
